Measured values drawn from ChEMBL document CHEMBL3525983 for this set.

PROTOCOL DESCRIPTION: Cmax in monkey at 0.986 mg/kg, po administered via gavage by LC-MS/MS analysis
Assay type: ADME, organism-based, Macaca mulatta
Set-up: dose 0.986 mg/kg, dosed compound name [14C]Rivoglitazone, route oral
CONDITIONS USED: rhesus monkey, in vivo
EXPERIMENTAL ENDPOINT: Cmax (ng/mL)
# number only, unit ng/mL dropped from output

Field Cmax (entry COc1ccc2nc(COc3ccc(CC4SC(=O)NC4=O)cc3)n(C)c2c1.Cl (racemic) ) reads 2930

###

PROTOCOL DESCRIPTION: Terminal elimination half life in F344/DuCrlCrlj rat at 0.5 mg/kg, po administered via gavage by LC-MS/MS analysis
Assay type: ADME, organism-based
Design: dose 0.5 mg/kg, dosed compound name [14C]Rivoglitazone, route oral
CONDITIONS USED: in vivo, read-out: beta t1/2 (converted)
EXPERIMENTAL ENDPOINT: half-life
The number alone won't do; follow it with the unit.

Reported half-life of COc1ccc2nc(COc3ccc(CC4SC(=O)NC4=O)cc3)n(C)c2c1.Cl (racemic) : 4.98 h
